B1: library; numbered along this chain (parent)
chain: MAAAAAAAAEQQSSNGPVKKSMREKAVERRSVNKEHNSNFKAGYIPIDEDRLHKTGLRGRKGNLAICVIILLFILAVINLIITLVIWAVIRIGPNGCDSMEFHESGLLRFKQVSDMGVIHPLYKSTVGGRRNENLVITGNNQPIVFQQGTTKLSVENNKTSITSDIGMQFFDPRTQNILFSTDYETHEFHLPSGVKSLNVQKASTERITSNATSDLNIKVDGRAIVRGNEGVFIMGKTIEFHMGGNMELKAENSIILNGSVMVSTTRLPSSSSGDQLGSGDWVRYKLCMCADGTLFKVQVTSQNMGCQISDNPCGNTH

Variants of: B1
assay.protocol: SGCB cell-surface expression functional score (HA stain, bin4 vs bin1, normalised to synonymous) (log10 ratio); higher = more cell-surface SGCB (functional)
Each entry gets F if its SGCB cell-surface expression functional score (log10) stays under -0.02, and T if its SGCB cell-surface expression functional score (log10) is -0.02 or above.

These solved cases illustrate the format of a correct answer.
{"variant.id": "N258L", "classification": "T"}
{"variant.id": "K202F", "classification": "F"}
{"variant.id": "R131K", "classification": "T"}
{"variant.id": "P269F", "classification": "T"}
{"variant.id": "V118H", "classification": "F"}

Input line: Evaluate "H120W" : SGCB cell-surface expression functional score (log10) at minimum -0.02?
Output line: T

Input line: Evaluate "N37H" : SGCB cell-surface expression functional score (log10) at minimum -0.02?
Output line: T

Input line: Evaluate "K20A" : SGCB cell-surface expression functional score (log10) at minimum -0.02?
Output line: T

Input line: Evaluate "V220Y" : SGCB cell-surface expression functional score (log10) at minimum -0.02?
Output line: F

Input line: Evaluate "V283T" : SGCB cell-surface expression functional score (log10) at minimum -0.02?
Output line: F
